Target: human CaMKK2 (residues 50–588) (Homo sapiens, UniProt Q96RR4)
Construct: recombinant bacterial expressed human CaMKK2 (residues 50–588); made in house
Assay: CaMKK2 enzyme assay ([γ-32P]-ATP, CaMKKtide peptide)
Type: biochemical
Conditions: [drug] 1 μM
Answer each item with its documented Enzyme assay raw data (0 μM drug = 100.00).
API note: the answer field is a bare number with no unit suffix.

Record summary for O=C(O)c1ccc2c3c1cccc3c(=O)n1c3ccccc3nc21 [STO-609, reference compound] : reported Enzyme assay raw data (0 μM drug = 100.00) = 4.64

Record summary for `Cc1ccc(Nc2nsnc(Nc3ccc(C(=O)O)cc3)c2=O)cc1O` : reported Enzyme assay raw data (0 μM drug = 100.00) = 79.70

Record summary for `Cc1ccc(Nc2nsnc(Nc3ccccc3C(N)=O)c2=O)cc1O` : reported Enzyme assay raw data (0 μM drug = 100.00) = 85.36

Record summary for `Cc1ccc(Nc2nsnc(Nc3ccc(-c4ncc[nH]4)cc3)c2=O)cc1O` : reported Enzyme assay raw data (0 μM drug = 100.00) = 79.37

###

Target: PRPF4BA (Homo sapiens, UniProt Q13523)
Construct: purchased in-house (home-made panel, SGC-style construct names)
Sequence (Q13523 whole entry): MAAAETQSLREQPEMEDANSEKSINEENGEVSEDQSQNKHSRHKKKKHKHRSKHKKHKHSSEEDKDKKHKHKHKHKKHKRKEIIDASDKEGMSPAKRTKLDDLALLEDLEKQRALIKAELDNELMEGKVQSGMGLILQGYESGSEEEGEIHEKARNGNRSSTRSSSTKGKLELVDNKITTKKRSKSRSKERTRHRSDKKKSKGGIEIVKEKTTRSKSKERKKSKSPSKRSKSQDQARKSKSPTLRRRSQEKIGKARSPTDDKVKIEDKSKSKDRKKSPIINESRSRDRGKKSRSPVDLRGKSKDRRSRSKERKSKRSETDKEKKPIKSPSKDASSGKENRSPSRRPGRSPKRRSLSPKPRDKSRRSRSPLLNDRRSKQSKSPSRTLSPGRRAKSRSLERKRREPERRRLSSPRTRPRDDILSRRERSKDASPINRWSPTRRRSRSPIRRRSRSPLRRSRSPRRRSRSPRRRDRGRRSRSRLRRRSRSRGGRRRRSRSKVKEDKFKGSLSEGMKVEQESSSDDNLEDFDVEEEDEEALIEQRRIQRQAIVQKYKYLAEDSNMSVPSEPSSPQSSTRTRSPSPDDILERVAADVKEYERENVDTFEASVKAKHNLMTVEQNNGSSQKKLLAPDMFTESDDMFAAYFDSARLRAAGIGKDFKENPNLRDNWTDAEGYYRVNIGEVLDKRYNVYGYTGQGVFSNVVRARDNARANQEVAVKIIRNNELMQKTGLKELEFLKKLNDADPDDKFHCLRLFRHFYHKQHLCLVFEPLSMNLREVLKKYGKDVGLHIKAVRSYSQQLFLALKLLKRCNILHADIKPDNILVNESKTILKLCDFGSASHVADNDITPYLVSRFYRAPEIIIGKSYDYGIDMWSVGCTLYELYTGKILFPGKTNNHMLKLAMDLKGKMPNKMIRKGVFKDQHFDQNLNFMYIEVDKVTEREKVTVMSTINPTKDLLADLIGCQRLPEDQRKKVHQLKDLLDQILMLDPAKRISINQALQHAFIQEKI
Test: DSF thermal shift, kinase panel
Assay type: binding
Settings: 10 μM compound
measure: ΔTm at 10 µM (°C)
Give the value, in units of °C, as a plain number.

Record summary for CNC(=O)c1ccccc1Nc1nsnc(Nc2cccc(CS(C)(=O)=O)c2)c1=O [Compound 4] : reported ΔTm at 10 µM = 0.1

Record summary for Cc1ccc(Nc2nsnc(Nc3ccc4c(c3)CS(=O)(=O)C4)c2=O)cc1O [Compound 3] : reported ΔTm at 10 µM = 0.6

Record summary for Cc1ccc(Nc2nsnc(Nc3ccc(C(N)=O)cc3)c2=O)cc1O [Compound 2] : reported ΔTm at 10 µM = 0.1

Record summary for CNC(=O)c1ccccc1Nc1nsnc(Nc2ccc(N3CCOCC3)cc2)c1=O [Compound 5] : reported ΔTm at 10 µM = 0.1

Record summary for Cc1ccc(Nc2nsnc(Nc3cccc(C(N)=O)c3)c2=O)cc1O [Compound 1] : reported ΔTm at 10 µM = 0.7

###

Target: human CaMKK2 (residues 50–588) (Homo sapiens)
Construct: recombinant bacterial expressed human CaMKK2 (residues 50–588); made in house
Assay: CaMKK2 enzyme assay ([γ-32P]-ATP, CaMKKtide peptide);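 also: radiometric kinase assay: phosphate transfer from [γ-32P]-ATP to synthetic peptide substrate, 10 min reaction at 30 °C, peptide-bound radioactivity captured on P81 paper and measured by scintillation counting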
Assay type: biochemical
Details: [drug] 0.1 μM
measure: Enzyme assay raw data (0 μM drug = 100.00)
API note: the answer field is a bare number with no unit suffix.

Entry `Cc1ccc(Nc2nsnc(Nc3ccc(-c4ncc[nH]4)cc3)c2=O)cc1O` : Enzyme assay raw data (0 μM drug = 100.00) on human CaMKK2 (residues 50–588) (Homo sapiens) = 84.85

Entry `Cc1ccc(Nc2nsnc(Nc3ccc(C(=O)O)cc3)c2=O)cc1O` : Enzyme assay raw data (0 μM drug = 100.00) on human CaMKK2 (residues 50–588) (Homo sapiens) = 89.54

Entry O=C(O)c1ccc2c3c1cccc3c(=O)n1c3ccccc3nc21 [STO-609, reference compound] : Enzyme assay raw data (0 μM drug = 100.00) on human CaMKK2 (residues 50–588) (Homo sapiens) = 42.21

Entry `Cc1ccc(Nc2nsnc(Nc3ccccc3C(N)=O)c2=O)cc1O` : Enzyme assay raw data (0 μM drug = 100.00) on human CaMKK2 (residues 50–588) (Homo sapiens) = 91.02
